Entry source: the supplement of paper PMC10307832

# Test system: A-427
# Method Notes: relative viability (nuclei count vs DMSO), 5 days (fraction); higher = more cells survive
# Reported Conditions: first compound 2.53 µM
Outcome Measure: relative viability

>>> reported_measurement("CCCCCCCCCCCC1=C(O)C(=O)C=C(O)C1=O [Embelin] + C[C@]1(O)C[C@@H](c2nc(-c3ccc4ccc(-c5ccccc5)nc4c3)c3c(N)nccn32)C1 [Linsitinib] (partner 1 µM)")
1.12
>>> reported_measurement("CCCCCCCCCCCC1=C(O)C(=O)C=C(O)C1=O [Embelin] + Cc1cc(Nc2cc(N3CCN(C)CC3)nc(Sc3ccc(NC(=O)C4CC4)cc3)n2)n[nH]1 [Tozasertib] (partner 0.1 µM)")
0.188
>>> reported_measurement("CCCCCCCCCCCC1=C(O)C(=O)C=C(O)C1=O [Embelin] + CC(=O)c1c(C)c2cnc(Nc3ccc(N4CCNCC4)cn3)nc2n(C2CCCC2)c1=O [Palbociclib] (partner 0.5 µM)")
0.526
